Listed below: OD492 nm values for each entry.
molecular target: T1, bovine serum albumin (BSA) (bovine, UniProt P02769 25-607); assay: phage ELISA, 1% BSA coated, anti-M13-HRP detection
T1 construct: Control antigen coated at 1% in PBS (pH 7.4); also called negative control antigen
T1 sequence (P02769 25-607 limits assumed): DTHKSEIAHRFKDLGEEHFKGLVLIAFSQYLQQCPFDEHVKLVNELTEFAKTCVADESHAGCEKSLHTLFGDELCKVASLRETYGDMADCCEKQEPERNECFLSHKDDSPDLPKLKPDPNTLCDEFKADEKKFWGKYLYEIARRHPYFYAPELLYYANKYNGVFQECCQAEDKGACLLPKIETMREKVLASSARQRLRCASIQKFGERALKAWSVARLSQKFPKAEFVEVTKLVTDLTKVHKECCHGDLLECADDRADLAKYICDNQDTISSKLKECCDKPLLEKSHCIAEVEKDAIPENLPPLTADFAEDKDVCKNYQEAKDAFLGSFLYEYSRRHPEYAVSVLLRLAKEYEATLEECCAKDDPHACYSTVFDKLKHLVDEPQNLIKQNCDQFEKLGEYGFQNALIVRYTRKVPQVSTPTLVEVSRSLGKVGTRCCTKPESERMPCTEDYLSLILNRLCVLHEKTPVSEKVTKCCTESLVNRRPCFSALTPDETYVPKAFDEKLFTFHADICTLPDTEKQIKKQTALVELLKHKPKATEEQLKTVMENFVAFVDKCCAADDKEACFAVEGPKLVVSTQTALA

BINDER	OD492 nm
SC06-252 (scFv, Vl 132-241); also called single-chain phage antibody SC06-252) scFv: EVQLVETGGGLVQPGGSLRLSCAASGLTFSSYAMSWVRQAPGKGLEWVSALSGSTTFYADSVKGRFTISRDNAKNTLYLQMNSLRAEDTAVYYCARGNYYGMDVWGQGTTVTVSSGTGGSGGTGSGTGGSTSYVLTQPPSASGTPGQRVTISCSGSSSNIGKFYVYWYQQFPGAAPKLLIYSNNQRPSGVPDRFSGSKSGTSASLAISGLQSEDEADYYCAAWDGSLNGYVFGTGTKVTVL	0.044 OD492 nm
SC06-050 (scFv, Vl 143-249); also called single-chain phage antibody SC06-050) scFv: EVQLVESGPEVKKPGASVKVSCEASGYNLDNYGITWVRQAPGQGLEWLGWISAYNAKTEYGQRLQGRVTMTTDTATSTAYLELRSLRSDDTAVYYCARVLGYRGGWYDEGDAFDVWGQGTMVTVSSGTGGSGGTGSGTGGSTDIQLTQSPSFLSASVGDRVTITCRASQGIRSHLAWYQQKAGKAPKLLIYAASTLQSGVPSRFSGSGSGTEFTLTISSLQPDDFAAYYCQQLNTYPITFGQGTRLEIK	0.043 OD492 nm

Next item in the queue.
In: Give its OD492 nm value. Item: SC06-198 (scFv, Vl 133-243); also called single-chain phage antibody SC06-198) scFv: QLQLQESGPGLVKPSETLSLTCAVSGYSITSGYYWGWVRQPPGKGLEWIGSIYHTGSTYYNPSLKSRVTISVDTSKNQFSLKLNSLTAADTAVYFCASQSPAFDFWGQGTMVTVSSGTGGSGGTGSGTGGSTQSVLTQPPSVSGAPGQRVTISCTGSSSNIGTGYDVHWYQQLPGTAPKLLIYGNNNRPSGVPDRFSGSKSGTSASLAITGLQAEDEADYYCATWDDSLNGWVFGGGTKLTVP
Out: 0.049 OD492 nm
